molecular target: FGFR1 (UniProt P11362); assay: phosphorylation enrichment, bacterial display (enrichment ratio); higher = better substrate or ligand; peptides without Tyr show the background
Sequence (P11362 whole entry, looked up): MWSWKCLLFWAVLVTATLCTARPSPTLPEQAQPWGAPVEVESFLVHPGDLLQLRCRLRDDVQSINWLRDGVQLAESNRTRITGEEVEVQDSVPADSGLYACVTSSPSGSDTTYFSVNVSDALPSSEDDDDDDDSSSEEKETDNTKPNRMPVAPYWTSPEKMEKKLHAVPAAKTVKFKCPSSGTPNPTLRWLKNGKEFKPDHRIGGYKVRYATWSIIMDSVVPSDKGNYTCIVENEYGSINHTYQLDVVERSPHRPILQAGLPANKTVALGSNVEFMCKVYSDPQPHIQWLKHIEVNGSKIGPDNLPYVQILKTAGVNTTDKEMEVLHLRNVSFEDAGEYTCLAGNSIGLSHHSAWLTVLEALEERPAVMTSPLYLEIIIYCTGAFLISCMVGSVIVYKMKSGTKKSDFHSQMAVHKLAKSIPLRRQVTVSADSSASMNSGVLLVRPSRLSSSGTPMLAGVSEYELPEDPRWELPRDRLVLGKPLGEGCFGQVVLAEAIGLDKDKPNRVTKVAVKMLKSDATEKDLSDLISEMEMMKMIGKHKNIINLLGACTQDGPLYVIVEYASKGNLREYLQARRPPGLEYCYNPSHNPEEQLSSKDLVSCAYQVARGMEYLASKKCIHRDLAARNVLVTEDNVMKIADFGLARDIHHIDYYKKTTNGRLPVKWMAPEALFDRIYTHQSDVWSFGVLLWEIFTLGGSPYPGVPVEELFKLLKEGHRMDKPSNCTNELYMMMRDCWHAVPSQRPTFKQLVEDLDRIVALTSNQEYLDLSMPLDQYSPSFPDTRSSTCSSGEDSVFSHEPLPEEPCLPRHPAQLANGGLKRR
Class field: derived from phosphorylation enrichment; ranges low class = under 0.5, middle class = from 0.5 up to 0.6, high class = 0.6 and over

POLYMER SEQUENCE | LABEL VALUE
RLLRGYRQDAF [HLA-A_Y137_F133L_YF] | middle class
GDRPVYSEDEQ [CHST6_Y362_Y358D] | high class
QLYGAYLRIHA [BSCL2_Y213] | high class
PASWTYVRWFD [PTDSS1_Y274] | high class
GGQVFHNSEFG [FLT4_Y1333_Y1333H_YF] | low class
PSPMPYASCQM [FOXL2_Y215] | high class
KAIMTYVPSFY [ACTN4_Y260_S262P] | low class
SGFESYGSSSF [RPA2_Y9_YF] | low class
PEQAAYQKVVA [HBB_Y131_V127E] | middle class
GLDGRYLLRDS [SH2D1A_Y29_S28R] | middle class
GMKIVYVYVKK [DNAI2_Y5_E2K] | low class
QRCFVYFFSFL [PTEN_Y176_R173C_YF] | high class
FGGLRYGFGVL [KRTAP20-2_Y13_YF] | high class
FFLGKYLQEVL [KLB_Y910_YF] | low class
IRRWVYPLTPE [EIF2B5_Y319] | low class
TTTQAYRVDER [PRKN_Y391] | low class
LNSFIYSLRNR [OR1A1_Y288_P285S] | high class
ERNAHYRTPKI [PTK2B_Y699_R698H] | middle class
KVNKIYYPDFI [LIG3_Y767] | high class
TNQVIYLNPPI [DYNC1H1_Y970] | high class
FDNPIYQKTTE [LDLR_Y828_V827I] | middle class
SHNKFYMLVAH [MFSD8_Y134_R139H_YF] | high class
DLAAQYTTVGH [SGSH_Y240_R245H] | low class
VTRLRYPVCFG [ITK_Y336] | low class
ENELTYYCCKK [CD59_Y86] | high class
ASTDFNKRGDF [PDHA1_Y243_Y243N_YF] | low class
KEIHAYRKLLE [LMNA_Y376_M371K] | low class
ITKQEYDEAGP [ACTA1_Y364] | low class
QQLDEYQKLLD [LMNA_Y359_E361K] | high class
VKANTYEKFWL [GATM_Y100_P105L_YF] | low class
KDHPDYKYQLR [SOX10_Y171_P175L] | low class
NAPNSYGRRPT [CDKN2A_Y44_I49T] | low class
QKMFDYLKEKK [RYR2_Y3780_L3778F] | low class
PVQDAYQKVVA [HBB_Y131_A129D] | low class
PDGREYIYVDP [PDGFRA_Y572_H570R] | high class
EIRTQYEAMAS [GFAP_Y242] | high class
FDFKKYGKGLR [ZNF445_Y433_YF] | middle class
TIAIRYSHSRR [ACOXL_Y260] | middle class
SEDSEYYKAFE [CASQ2_Y178] | middle class
ARLDEYIAIAK [RCOR3_Y46_K42R] | low class
LDCNEYFRDLN [HPRT1_Y198_Y195C] | high class
CEDGNYSPEIS [PTDSS1_Y424_T423N] | high class
NKPTVYGVSPN [ABL1_Y226] | low class
HKLSSYEFDFE [BTK_Y40_Y39S_YF] | high class
PIGRKYKKVRF [F8_Y442_R437P] | middle class
VVSLFYGTALF [OR10C1_Y251_M246V] | middle class

----------
tested on: AncSZ; assay: phosphorylation enrichment, bacterial display (enrichment ratio); higher = better substrate or ligand; peptides without Tyr show the background

POLYMER SEQUENCE | phosphorylation enrichment
LMIKEYLTKEL [BAG3_Y457_E455K] | 0.867
FSLPAYMDRRD [COX4I1_Y38] | 0.873
PMQMPYDSRWE [PDGFRA_Y582_L580M] | 1.52
FDNPIYQKTTE [LDLR_Y828_V827I] | 0.833
IDLEKYKLLPE [DHFR_Y157] | 0.956
ADLTEYLSTHF [UQCRC1_Y219_YF] | 1.43
QISQDYGVLLE [PRDX3_Y172_R170Q] | 1.37
TDISLYPSGGT [TENM4_Y399_V396I] | 0.637
NHRNQYQALKT [CLSPN_Y887_P892T] | 0.536
SSVKLYRVFCD [FGB_Y266_P265L_YF] | 0.945
KVALVYGQMNQ [ATP5F1B_Y269_E274Q] | 0.726
ALVLQYLRVPL [F9_Y371] | 1.03
DKANRYFSPNV [PTEN_Y336_F341V] | 0.446
SYNNKYGMVAQ [APOB_Y276_K273N] | 0.623
RRGTRYMSSRP [RPL21_Y13_F15S] | 0.439
IKGNMYYENSY [EGFR_Y112_R108K] | 0.746
FLAATYPTLGQ [NF1_Y2508_V2511L_YF] | 0.572
LPHVIYCRLWR [SMAD2_Y128] | 1.05
NFRTTCVNANE [KCNH2_Y475_Y475C] | 0.974
DYLEKYYKFGS [NNMT_Y24] | 0.631
VAMELYVFRGV [GAN_Y471_G474R] | 1.16
LLKANYELLNA [POLR3A_Y714_K713N] | 0.975
LQTYHYHGHSM [PDHA1_Y289_R288H] | 0.974
RVFIKYLPEWT [PSEN1_Y240_L235R] | 2.32
SHRQDYLVGNK [GSTA1_Y147_G144R] | 0.441
FLAVGYHKPRI [IDS_Y225_H229R] | 0.638
DFFDLYGGKKF [PTPN11_Y66_E69K_YF] | 1.01
GLRCGYGVLGG [KRTAP20-2_Y15_Y13C] | 0.775

----------
// SH2 binding enrichment lookup, one value per entry
biological target: c-Src SH2; experiment: SH2 binding enrichment of the phosphorylated peptide, bacterial display (enrichment ratio); higher = better substrate or ligand; peptides without Tyr show the background;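 also: peptide library displayed on the E. coli surface as eCPX fusions, selected cells deep-sequenced, score is each peptide's frequency after selection divided by its frequency in the input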

POLYMER SEQUENCE | TARGET | SH2 binding enrichment
TRSYKCLLLSM [NF1_Y491_Y491C] | c-Src SH2 | 0.815
PQDVTYAQLHS [LILRB4_Y412] | c-Src SH2 | 0.973
PEAALYGRFTF [FYN_Y440_I445F] | c-Src SH2 | 0.328
TNQVIYLNPPI [DYNC1H1_Y970] | c-Src SH2 | 0.459
ETKRPYTVILI [SBDS_Y128] | c-Src SH2 | 1.05
CTTIHYNFMCD [TP53_Y234_N239D_YF] | c-Src SH2 | 3.31
EGVPLYESATT [DCC_Y809] | c-Src SH2 | 0.57
NHFKICNLCAE [PTEN_Y68_Y68C_YF] | c-Src SH2 | 1.11
IRTIDYRFTVC [IDS_Y497_W502C_YF] | c-Src SH2 | 0.407
CTTIHYNFMSN [TP53_Y234_C238S_YF] | c-Src SH2 | 0.743
EALDFYGELRT [PTEN_Y155_V158L] | c-Src SH2 | 0.503
IRRWVYPLTPE [EIF2B5_Y319] | c-Src SH2 | 0.517
CTTIHYNFMCH [TP53_Y234_N239H_YF] | c-Src SH2 | 1.75
NTGFFYDLFGG [PTPN11_Y63_D61Y_YF] | c-Src SH2 | 0.98
LDYNEYFRNLN [HPRT1_Y198_D201N] | c-Src SH2 | 0.507
ATYRGYDSDNP [MMUT_Y146_H143Y] | c-Src SH2 | 0.526
MYVKSYTIHYS [F5_Y2153] | c-Src SH2 | 0.443
REVVNYVQKRS [RMI1_Y450_N455S] | c-Src SH2 | 0.515
ERIELYELDKK [PMM2_Y145_F144L] | c-Src SH2 | 0.487
SVVVPYKPPEV [TP53_Y220_E221K] | c-Src SH2 | 0.546
SVVVPDEPPEV [TP53_Y220_Y220D] | c-Src SH2 | 0.576
VRHRRYKHTHE [CTCF_Y343] | c-Src SH2 | 0.364
SHRQDYLVGNK [GSTA1_Y147_G144R] | c-Src SH2 | 0.501

----------
# phosphorylation enrichment per entry
target: Jak2 (UniProt O60674); experiment: phosphorylation enrichment, bacterial display (enrichment ratio); higher = better substrate or ligand; peptides without Tyr show the background
Sequence (O60674 whole entry, looked up): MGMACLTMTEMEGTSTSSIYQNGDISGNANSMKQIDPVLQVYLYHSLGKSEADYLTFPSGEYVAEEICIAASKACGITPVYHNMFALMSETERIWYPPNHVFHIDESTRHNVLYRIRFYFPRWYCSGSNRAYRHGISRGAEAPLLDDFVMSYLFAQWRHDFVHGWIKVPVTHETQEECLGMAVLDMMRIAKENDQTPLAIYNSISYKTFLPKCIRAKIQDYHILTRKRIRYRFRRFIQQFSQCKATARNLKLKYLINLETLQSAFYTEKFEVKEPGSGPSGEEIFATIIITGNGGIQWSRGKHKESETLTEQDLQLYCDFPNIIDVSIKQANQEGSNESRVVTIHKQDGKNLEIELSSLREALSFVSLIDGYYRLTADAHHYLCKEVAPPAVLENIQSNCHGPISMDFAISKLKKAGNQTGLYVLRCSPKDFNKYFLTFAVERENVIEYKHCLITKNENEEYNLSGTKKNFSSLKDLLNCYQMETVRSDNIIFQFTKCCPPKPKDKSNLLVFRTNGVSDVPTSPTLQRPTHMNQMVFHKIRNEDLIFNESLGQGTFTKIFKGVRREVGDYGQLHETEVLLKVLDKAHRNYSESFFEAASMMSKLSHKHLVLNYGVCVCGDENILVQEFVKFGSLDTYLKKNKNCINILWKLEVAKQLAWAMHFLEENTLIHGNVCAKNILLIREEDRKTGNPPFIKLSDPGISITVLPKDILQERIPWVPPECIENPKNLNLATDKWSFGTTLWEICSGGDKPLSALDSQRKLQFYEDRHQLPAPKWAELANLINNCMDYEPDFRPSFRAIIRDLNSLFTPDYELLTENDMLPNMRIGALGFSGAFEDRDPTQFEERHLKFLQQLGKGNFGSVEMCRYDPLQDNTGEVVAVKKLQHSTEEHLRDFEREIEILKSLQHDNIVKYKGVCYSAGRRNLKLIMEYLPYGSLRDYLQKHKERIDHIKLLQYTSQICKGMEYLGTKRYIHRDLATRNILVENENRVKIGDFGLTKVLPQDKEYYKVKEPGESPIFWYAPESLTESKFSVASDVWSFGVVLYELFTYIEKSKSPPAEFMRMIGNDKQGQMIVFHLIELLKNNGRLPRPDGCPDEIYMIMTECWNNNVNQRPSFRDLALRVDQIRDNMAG
READOUT: phosphorylation enrichment

POLYMER SEQUENCE | TARGET | READOUT | OBSERVED MEASUREMENT
VAMELYVFRGV [GAN_Y471_G474R] | Jak2 (UniProt O60674) | phosphorylation enrichment | 1.09
RRNTPYSQTMK [TET2_Y819_S817T] | Jak2 (UniProt O60674) | phosphorylation enrichment | 0.708
FLAATYPTLGQ [NF1_Y2508_V2511L_YF] | Jak2 (UniProt O60674) | phosphorylation enrichment | 0.523
TRSYKCLLLSM [NF1_Y491_Y491C] | Jak2 (UniProt O60674) | phosphorylation enrichment | 0.784
SSVAGYACLAF [MVD_Y131_A128V_YF] | Jak2 (UniProt O60674) | phosphorylation enrichment | 0.961
RIVTTYIRERE [DNM2_Y463] | Jak2 (UniProt O60674) | phosphorylation enrichment | 0.795
GYCSWYRGWAP [TIMP3_Y195] | Jak2 (UniProt O60674) | phosphorylation enrichment | 1.32
VQVAFYTMMMN [SPATA17_Y84_YF] | Jak2 (UniProt O60674) | phosphorylation enrichment | 1.6
NGSKGYAYVHF [PABPC5_Y147] | Jak2 (UniProt O60674) | phosphorylation enrichment | 0.961
ERDTVYSSSGV [NELL2_Y350_N347D] | Jak2 (UniProt O60674) | phosphorylation enrichment | 0.601
